- Assay text: RSG and INT131 concentrations in plasma and tissue after a single oral dose (UHPLC-MS/MS)
- Assay type: in vivo, DIO mice
- Assay conditions: C57BL/6, mouse, plasma and liver, po, 30 mg/kg; read-out: time of peak concentration
Test readout: Tmax (min)
Report only the number, with the unit min understood.

Prompt line: Param item = "O=S(=O)(Nc1cc(Cl)c(Oc2cnc3ccccc3c2)c(Cl)c1)c1ccc(Cl)cc1Cl" ; retrieve measured Tmax.
Response line: 30

---

- Assay text: RSG and INT131 concentrations in plasma and tissue after a single oral dose (UHPLC-MS/MS)
- Format: in vivo, DIO mice
- Assay conditions: C57BL/6, mouse, skeletal muscle, eWAT, sWAT, BAT, po, 30 mg/kg; read-out: time of peak concentration
Test readout: Tmax (h)
Response body: numeric value in h, unit text excluded.

Prompt line: Which Tmax value is on record for "O=S(=O)(Nc1cc(Cl)c(Oc2cnc3ccccc3c2)c(Cl)c1)c1ccc(Cl)cc1Cl" ?
Response line: 4
